Sourced from PubChem BioAssay

# target: Concanavalin-A (Canavalia ensiformis)
# methodDescription: ConA small-molecule binders, primary screen, artefact control for SMM control protein annotation, biochemical, small-molecule microarray, Alexa647 label, 635 nm (AID 1127);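 note: z combines 667 nm emission intensity with signal-to-noise across three replicate slides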
# experimentalConditions: ConA-A647 binding fluorescence, higher = more signal
reportedEndpoint: composite z-score
Reply: number alone, nothing else.

Some solved cases for reference:
COc1ccc(C(=O)Nc2ccc(CN3C(=O)[C@@]4(O[C@@H](CC(=O)N(CCO)Cc5ccccc5)[C@H]([Si](C)(C)c5ccc(OC)cc5)[C@H]4C)c4ccccc43)cc2)cc1 :: 1.1
C[N+](C)(C)CCCC[C@@H]1NC(=O)[C@H]2C[C@@H](C(=O)NCCCCCN)[C@@H](c3ccc(O)cc3)N2C1=O :: 1.18
COCCCNC(=O)[C@]1(Cc2ccccc2CN=[N+]=[N-])N=C(c2ccc(OCCCO)cc2)O[C@@H]1c1ccccc1N=[N+]=[N-] :: 1.05

Please look up its composite z-score: C=C(CCCC)/C(=C/C[C@@H](OC(C)=O)c1ccc(OCCO)cc1)c1cc(C(=O)OC)ccc1OC
0.787

Please look up its composite z-score: CC(C)Cc1ccc(CN2CC[C@@H](NC(=O)c3ccccc3)C2)cc1
-0.52

Please look up its composite z-score: O=C1OCCC/C=C\[C@H]2OC34C=CCN(Cc5ccccc5)C(=O)[C@H]3N(CCO)C(=O)[C@@H]4C12 (some centres not stated)
-0.619

Please look up its composite z-score: CCCNC(=O)[C@@]1(Sc2ccc(C)cc2)CC(=O)N(Cc2cc(C(F)(F)F)cc(C(F)(F)F)c2)[C@@H]1c1ccc(CO)cc1
-0.149

* * *

# methodDescription: modulators of HCV replicon luciferase signal, primary screen, HCV replication inhibitor project, Huh7 cells, luciferase reporter (AID 1109);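 note: huh7 hepatoma cells harbouring a luciferase neomycin HCV replicon reporter; luciferase luminescence as measure of HCV replicon replication; test concentration not given here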
# experimentalConditions: 48 h, higher = more signal
reportedEndpoint: z-score
Reply: number alone, nothing else.

Some solved cases for reference:
COc1cc(CO)cc(I)c1O[C@H]1C=C(C(=O)NCCO)C[C@@H](N(CCN2CCOCC2)C(=O)C2CCCO2)[C@@H]1O (stereo partly drawn) :: 0.109
COC(=O)[C@]1(Cc2ccccc2CN=[N+]=[N-])N=C(c2ccc(OCCCO)cc2)O[C@@H]1c1ccccc1N=[N+]=[N-] :: -2.65
O=C1NC(=O)C2C1C=CC(C(O)C(c1ccccc1)c1ccccc1)N2Nc1ccccn1 (stereo not drawn) :: -0.246
CCOC(=O)C1=CC[C@@H](c2ccccc2)N(S(=O)(=O)c2ccc(C)cc2)[C@@H]1C#N :: -1.72

Please look up its z-score: C=CCC(OC(C)=O)[C@@H]1[C@@H](N(Cc2ccc(-c3ccccc3)cc2)C(=O)Cc2ccc(OC)cc2)c2cc(OCCCO)ccc2N1C(=O)c1ccc2ccccc2c1 (stereo partly drawn)
-0.856

Please look up its z-score: COc1ccc([Si](C)(C)[C@H]2[C@H](CCO)O[C@@]3(C(=O)N(Cc4ccccc4)c4ccc(NC(=O)[C@H](C)O)cc43)[C@@H]2C)cc1
-5.05

Please look up its z-score: C=CCNC(=O)[C@H]1[C@@H]2C(=O)O[C@@H](c3ccccc3)[C@@H](c3ccccc3)N2[C@@H](c2ccc(OCCO)cc2)[C@]12C(=O)N(C(=O)OCCOC)c1ccc(C#CCNC(N)=O)cc12
-0.197

Please look up its z-score: C=C(COC)C(=O)CC[C@H](OC(C)=O)c1ccccc1OCCO
-1.94

Please look up its z-score: COC(=O)[C@@]1(Cc2ccc(F)cc2)[C@H]2c3cc(C(=O)N(C)C)n(Cc4ccc(C(F)(F)F)nc4)c3C[C@H]2CN1C(=O)c1ccccc1
-2.42

Please look up its z-score: O=C1O[C@@H](c2ccccc2)[C@@H](c2ccccc2)N2[C@@H](c3ccccc3OCCO)[C@]3(C(=O)Nc4ccc(C#CC5(O)CCCCCC5)cc43)[C@@H](C(=O)N3CCCCCCC3)[C@H]12
-2.22

Please look up its z-score: COc1ccc(-c2cc3c(c(CCc4ccccc4)n2)[Si](C(C)C)(C(C)C)O[C@H]3c2ccccc2)cn1
-1.8

Please look up its z-score: C=CC[C@H](O)c1ccc(O)c2ccccc12
-2.04

Please look up its z-score: CC(CO)N1C(=O)[C@@H]2[C@H]3C(=O)OCC=C[C@H]3OC23C=CCN(c2ccc4ccccc4c2)C(=O)[C@@H]13 (stereo partly drawn)
-0.418

Please look up its z-score: CCCCCN1CC=CC23O[C@@H]4/C=C\CCCOC(=O)C4[C@H]2C(=O)N(CCCCCO)[C@@H]3C1=O (stereo partly drawn)
-0.831

Please look up its z-score: CC[C@H]1C2=C3C(CC[C@H]4C(OCc5ccc(F)cc5C(F)(F)F)OC[C@](C)([C@@H]34)N(C(=O)OC(C)(C)C)C2)C(COC(C)=O)C1COC(C)=O (stereo partly drawn)
-0.567

Please look up its z-score: CC(C)(C)OC(=O)CC[C@@]1(C(=O)N2CCOCC2)N=C(c2ccc(OCCCO)cc2)O[C@@H]1c1ccccc1CN=[N+]=[N-]
0.265

Please look up its z-score: C[C@]1(C(=O)O)c2ccccc2C(=O)N(Cc2cc(C(F)(F)F)cc(C(F)(F)F)c2)[C@H]1c1ccc(CO)cc1
1.07
